As shown below, each of these compounds has a reported melting point value.

-- ask Could you tell me which melting point is on file for `Cc1nc2ncnn2c2c1CCN2Cc1ccccc1` ?
-- reply 170 to 172 °C

* * *

melting point: recorded values

Worked set:
[
  {
    "COMPOUND": "CC1CC(N)(C(=O)O)c2cc(F)ccc2O1 (mixture of isomers)",
    "TEST READOUT": "melting point",
    "RESULT": "153 to 156 °C"
  },
  {
    "COMPOUND": "CCOC(=O)N1CCC(N(C)C(=O)c2ccc(Cl)c(Cl)c2)C12CCCCC2 (stereo not given)",
    "TEST READOUT": "melting point",
    "RESULT": "57 to 60 °C"
  },
  {
    "COMPOUND": "CCN(CC)CCn1c(O)nc2cc(Cl)c(Cl)nc21",
    "TEST READOUT": "melting point",
    "RESULT": "137 to 139 °C"
  },
  {
    "COMPOUND": "CN(C)CC1CCc2cc(OCc3ccc([N+](=O)[O-])cc3)ccc2C1 (stereo not given)",
    "TEST READOUT": "melting point",
    "RESULT": "83 to 89 °C"
  },
  {
    "COMPOUND": "O=[N+]([O-])c1oc2ccc(NCc3ccccc3)cc2c1-c1ccccc1",
    "TEST READOUT": "melting point",
    "RESULT": "118 to 120 °C"
  },
  {
    "COMPOUND": "O=[N+]([O-])c1ccc2nc3c4ccccc4c4ccccc4c3nc2c1",
    "TEST READOUT": "melting point",
    "RESULT": "253 to 255 °C"
  }
]

-- ask Given `COc1ccc(-c2cc(C(=O)NCc3ccccc3)c(=O)n(C)n2)cc1` , state its recorded melting point.
-- reply 145 to 146 °C

-- ask And `NC(=O)c1cc2cc(C(O)(C(F)(F)F)C(F)(F)F)ccc2[nH]1` ?
-- reply 262 to 263 °C

* * *

TEST READOUT: melting point

Example results:
[
  {
    "MOLECULE": "CC(C)(C)ON=C1CCC(NC(=O)N2CCn3c(Cl)c(-c4cccc(F)c4)c(C(N)=O)c3C2)CC1 (centres undefined)",
    "melting point": "195 to 198 °C"
  },
  {
    "MOLECULE": "COc1ccc(Cl)cc1NC(=O)[C@H]1[C@H](c2ccc(Br)cc2)C1(C)C (relative stereo)",
    "melting point": "170 to 172 °C"
  },
  {
    "MOLECULE": "CCOC(=O)Cc1sc(Sc2nccc(C)c2C(=O)OCC)nc1C",
    "melting point": "85 to 87 °C"
  },
  {
    "MOLECULE": "CCCC(=O)c1cnc2c(C(O)CN3CCOCC3)cccc2c1Nc1ccccc1C (centres undefined)",
    "melting point": "135 to 137 °C"
  },
  {
    "MOLECULE": "COc1cc(C(=O)Nc2ccccc2C(c2ccc(O)cc2)c2ccc(O)cc2)ccc1[N+](=O)[O-]",
    "melting point": "129 to 131 °C"
  }
]

Attention now turns to another entry.
-- ask Value lookup for melting point; key = `CC1(C)CC(=O)c2cc3c(cc2O1)OCO3`
-- reply 61 to 62 °C

* * *

Listing: melting point of selected compounds

[
  {
    "COMPOUND": "COc1ccccc1N1CCN(CCNc2ccccc2OC(F)(F)F)CC1",
    "melting point": "69.5 to 71 °C"
  }
]

-- ask Value lookup for melting point; key = `C=CCN1Cc2cc(Br)ccc2C1=O`
-- reply 58 to 60 °C

-- ask Same question, `CC(C)(C)c1cc(OCc2ccc(-c3nnn[nH]3)cc2)cc(C(C)(C)C)c1` this time
-- reply 253 to 255 °C

-- ask # repeat for `O=C(O)c1cc(O)c(Cl)c(Cl)c1`
-- reply 211 °C

-- ask What do we get for `Cc1ccc(C2(Cn3cncn3)OCCO2)cc1Br` ?
-- reply 121 °C

-- ask Next compound: `CN1CCN(Cc2ccc(NC(=O)C#Cc3ccc(-c4ccc(Cl)cc4)cc3)cc2)CC1`
-- reply 182 to 185 °C

-- ask Note, next up: CC1CCCN1C1CCN(c2ccc(C(=O)NC3CCOCC3)cc2)C1 (centres undefined)
-- reply 180 °C

-- ask And what about the compound CC1CC(NCC(F)(F)F)=NN1c1ccc(Cl)cc1 (centres undefined) ?
-- reply 63 to 64 °C

-- ask Follow-up item: `CCOc1ccc(OCC)c(C[C@@H](C(=O)[C@H](Cc2cc(OCC)ccc2OCC)N2C(=O)c3ccccc3C2=O)N2C(=O)c3ccccc3C2=O)c1`
-- reply 92 to 93 °C

* * *

TEST READOUT: melting point (°C)

[
  {
    "COMPOUND": "COc1cc(OC)c([N+](=O)[O-])nc1NCCO",
    "VALUE UNIT": "°C",
    "melting point": 131
  },
  {
    "COMPOUND": "O=C1CCCC1Oc1cccc2onc(OCC3CCN(CC4(O)CCOCC4)CC3)c12 (stereo not given)",
    "VALUE UNIT": "°C",
    "melting point": 133
  }
]

* * *

Catalogue of melting point readings, one per entry.

Answered cases to consult:
[
  {
    "COMPOUND": "O=C(NCc1ccc(Cl)cc1)c1ccccc1S",
    "melting point": "131 to 132 °C"
  },
  {
    "COMPOUND": "O=C(O)c1cc(Cl)c(Cl)c2c1OCC(CO)O2 (stereo unspecified)",
    "melting point": "175 to 177 °C"
  },
  {
    "COMPOUND": "CCOC(=O)c1c(O)nc2c(C(F)(F)F)cccc2c1O",
    "melting point": "190 °C"
  },
  {
    "COMPOUND": "CCOC(=O)C1=C(C)NC(COCCN)=C(C(=O)OC)C1c1cccc(Cl)c1Cl (stereo unspecified)",
    "melting point": "131 to 132 °C"
  },
  {
    "COMPOUND": "CN1C(=O)N(c2cc(F)c(C#N)cc2F)C(=O)CC1(N)C(F)(F)F (stereo unspecified)",
    "melting point": "115 °C"
  },
  {
    "COMPOUND": "O=C1N(Cc2nsc(Cl)n2)c2ccccc2C12COc1cc3c(cc12)OCO3 (stereo unspecified)",
    "melting point": "114 to 116 °C"
  },
  {
    "COMPOUND": "CCC(=O)C(=Cc1cc(O)c(O)c([N+](=O)[O-])c1)C(=O)CC",
    "melting point": "133 to 135 °C"
  },
  {
    "COMPOUND": "CCCCCCCCCCCCSCC(O)CO (stereo unspecified)",
    "melting point": "53 to 54 °C"
  }
]

-- ask Any idea what melting point was measured for `CCCCCCCCN1CCN(O)C1=O` ?
-- reply 53.5 to 55.5 °C

-- ask Now consider `Cc1c(C(=O)O)c(=O)cc(-c2ccccc2)n1C` and answer again.
-- reply 220 to 225 °C

-- ask Also CS(=O)(=O)c1cc(C(=O)N=C(N)N)ccc1C1C=CCC1 (stereo unspecified) , if possible.
-- reply 188 to 190 °C

* * *

TEST READOUT: melting point

-- ask # query: melting point of entry `CC(=O)c1ccc2c(c1)C(C)(C)CC(=O)N2C`
-- reply 75 to 77 °C

* * *

TEST READOUT: melting point

Examples with their reported melting point follow.
[
  {
    "COMPOUND": "NC(N)=NC(=O)Cc1c(-c2ccccc2)csc1-c1ccc(Oc2ccccc2)cc1",
    "melting point": "116 to 118 °C"
  },
  {
    "COMPOUND": "Cc1c[nH]c2c(NC(=O)c3c(Cl)cccc3Cl)cccc2c1=O",
    "melting point": "> 300 °C"
  },
  {
    "COMPOUND": "CC(=O)Nc1ccc(S(=O)(=O)NCC2CCN(C[C@H]3COc4ccc5[nH]ccc5c4O3)CC2)cc1",
    "melting point": "133 to 134 °C"
  },
  {
    "COMPOUND": "COC(=O)c1ccc(COc2cc3c(=O)ccn4c5ccc(Br)cc5c(c2)c34)nc1",
    "melting point": "75.2 to 76.3 °C"
  },
  {
    "COMPOUND": "CS(=O)(=O)c1ccc(-c2cnn(-c3cccc(-c4ccc(F)cc4)c3)c(=O)c2-c2ccc(F)cc2)cc1",
    "melting point": "222 to 225 °C"
  },
  {
    "COMPOUND": "O=C(CNC(=O)OCc1ccccc1)OCc1ccccc1",
    "melting point": "72 °C"
  },
  {
    "COMPOUND": "O=c1cc(-c2ccccc2)cc2n1CCN2",
    "melting point": "198 to 200 °C"
  },
  {
    "COMPOUND": "CCCCCC(CC(=O)Nc1cc(CCC(N)=O)ccc1C(C)(C)C)c1ccc(OC)cc1OC (stereo not given)",
    "melting point": "113 to 114 °C"
  },
  {
    "COMPOUND": "Cc1cccc(N(C)C(=S)Oc2ccc(Cl)c(C)c2)n1",
    "melting point": "134 to 136 °C"
  },
  {
    "COMPOUND": "CC1=NN(c2ccc(Cl)cc2)C(c2ccc(N)c(C)c2)C1 (stereo not given)",
    "melting point": "180 to 184 °C"
  }
]

-- ask Would you mind telling me what melting point value was observed for `COc1ccc2c(c1)OCN(CCO[N+](=O)[O-])C2=O` ?
-- reply 97 to 99 °C

-- ask Can you check `COCCOCCOc1ccc2c(c1)S(=O)(=O)N(CCl)C2=O` next?
-- reply 113 to 115 °C

-- ask Quick one: `CCCCCCCCCCOc1ccc(C(=O)Nc2cc(CCC(=O)CC3CCCCCC3)ccc2C(C)(C)C)cc1`
-- reply 98 to 99 °C

-- ask Another compound: `CCCCc1noc(-c2ccccc2)c1-c1ccc(S(N)(=O)=O)cc1`
-- reply 150 °C

-- ask For `O=C(c1cc([N+](=O)[O-])cc(C(F)(F)F)c1)c1cc([N+](=O)[O-])cc(C(F)(F)F)c1` then?
-- reply 181 °C

The values you see were collected from a melting point compilation (Tetko et al.; mined from patent text by program, amines drawn as free bases though some values may be those of a salt).
